# tgt: Oxysterols receptor LXR-alpha (Homo sapiens)
# Sequence (Q13133 whole entry): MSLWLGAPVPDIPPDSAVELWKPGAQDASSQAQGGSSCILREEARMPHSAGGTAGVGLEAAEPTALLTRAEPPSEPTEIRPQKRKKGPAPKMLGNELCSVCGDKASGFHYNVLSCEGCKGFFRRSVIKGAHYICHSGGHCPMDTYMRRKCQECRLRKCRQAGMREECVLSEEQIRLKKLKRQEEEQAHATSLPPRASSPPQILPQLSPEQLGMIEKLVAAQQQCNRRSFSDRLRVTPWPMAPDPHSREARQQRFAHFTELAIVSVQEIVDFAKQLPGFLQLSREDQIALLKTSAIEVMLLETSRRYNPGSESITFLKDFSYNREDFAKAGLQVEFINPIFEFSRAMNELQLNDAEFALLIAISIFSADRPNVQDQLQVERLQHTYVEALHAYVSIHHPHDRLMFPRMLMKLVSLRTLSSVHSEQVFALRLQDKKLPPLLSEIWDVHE
Would you mind telling me the reported log10 EC50 of each entry?
Recall that a logarithmic scale is used here: each number is log10 of EC50 in nM.

(Q) Recorded log10 EC50 of OC(c1ccc(N(Cc2ccccc2)CC(F)(F)F)c(Cl)c1)(C(F)(F)F)C(F)(F)F , please.
(A) 2.00

(Q) Recorded log10 EC50 of CCN(Cc1cscn1)c1ccc(C(O)(C(F)(F)F)C(F)(F)F)cc1 , please.
(A) 3.52

(Q) Recorded log10 EC50 of CCN(Cc1ccccn1)c1ccc(C(O)(C(F)(F)F)C(F)(F)F)cc1 , please.
(A) 2.85

(Q) Recorded log10 EC50 of CCN(c1ccc(C(O)(C(F)(F)F)C(F)(F)F)cc1Cl)C(COc1ccc(CC(=O)OC)cc1)c1ccccc1 (racemic) , please.
(A) 3.04

(Q) Recorded log10 EC50 of COC(=O)C1(c2ccccc2)CCCN1c1ccc(C(O)(C(F)(F)F)C(F)(F)F)cc1 (racemic) , please.
(A) 2.30

(Q) Recorded log10 EC50 of CCN(c1ccc(C(O)(C(F)(F)F)C(F)(F)F)cc1Cl)C(COc1ccc(CCC(=O)O)cc1)c1ccccc1 (racemic) , please.
(A) 3.65

----------
Would you mind telling me the reported EC50 of each entry?
# tgt: Oxysterols receptor LXR-beta (Homo sapiens)
# Sequence (P55055 whole entry): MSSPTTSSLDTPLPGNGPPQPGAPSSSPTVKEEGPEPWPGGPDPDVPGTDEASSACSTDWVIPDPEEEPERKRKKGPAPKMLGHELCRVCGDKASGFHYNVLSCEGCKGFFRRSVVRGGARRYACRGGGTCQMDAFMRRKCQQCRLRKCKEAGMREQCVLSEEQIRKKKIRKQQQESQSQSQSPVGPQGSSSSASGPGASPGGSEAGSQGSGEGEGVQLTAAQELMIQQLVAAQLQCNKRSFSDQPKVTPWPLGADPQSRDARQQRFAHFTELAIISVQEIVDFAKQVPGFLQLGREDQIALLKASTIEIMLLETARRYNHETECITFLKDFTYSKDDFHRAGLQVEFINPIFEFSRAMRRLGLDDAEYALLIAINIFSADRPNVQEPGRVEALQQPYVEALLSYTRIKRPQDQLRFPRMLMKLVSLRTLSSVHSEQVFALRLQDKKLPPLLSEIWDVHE
Your answer should be a plain number; it is taken to be in µM.

(Q) Recorded EC50 of CCN(Cc1ccccc1)c1ccc(C(O)(C(F)(F)F)C(F)(F)F)cc1Cl , please.
(A) 0.08

(Q) Recorded EC50 of CCN(c1ccc(C(O)(C(F)(F)F)C(F)(F)F)cc1)C(C)(C(=O)OC)c1ccccc1 (racemic) , please.
(A) 0.03

(Q) Recorded EC50 of CCN(Cc1nc(-c2cccc(C(F)(F)F)c2)oc1C)c1ccc(C(O)(C(F)(F)F)C(F)(F)F)cc1 , please.
(A) 0.06

----------
parameter: IC50 (nM)
Your answer should be a plain number; it is taken to be in nM.

(Q) Record lookup: for Oxysterols receptor LXR-beta (Homo sapiens, UniProt P55055), what IC50 belongs to CCN(Cc1nc(-c2cccc(C(F)(F)F)c2)oc1C)c1ccc(C(O)(C(F)(F)F)C(F)(F)F)cc1 ?
(A) 3

(Q) Record lookup: for Oxysterols receptor LXR-beta (Homo sapiens, UniProt P55055), what IC50 belongs to CCN(Cc1ccccc1)c1ccc(C(O)(C(F)(F)F)C(F)(F)F)cc1Cl ?
(A) 3

(Q) Record lookup: for Oxysterols receptor LXR-beta (Homo sapiens, UniProt P55055), what IC50 belongs to CCN(c1ccc(C(O)(C(F)(F)F)C(F)(F)F)cc1)C(C)(C(=O)OC)c1ccccc1 (racemic) ?
(A) 8

----------
parameter: pEC50
Reminder that pEC50 means the negative base-10 logarithm of the concentration expressed in mol/L.

(Q) Record lookup: for Oxysterols receptor LXR-alpha (Homo sapiens, UniProt Q13133), what pEC50 belongs to CCN(c1ccc(C(O)(C(F)(F)F)C(F)(F)F)cc1)C(C)(C(=O)N(C)C)c1ccccc1 (racemic) ?
(A) 6.40

(Q) Record lookup: for Oxysterols receptor LXR-alpha (Homo sapiens, UniProt Q13133), what pEC50 belongs to CCN(Cc1ccccc1)c1ccc(C(O)(C(F)(F)F)C(F)(F)F)cc1Cl ?
(A) 6.70

(Q) Record lookup: for Oxysterols receptor LXR-alpha (Homo sapiens, UniProt Q13133), what pEC50 belongs to CCN(Cc1nc(-c2cccc(C(F)(F)F)c2)oc1C)c1ccc(C(O)(C(F)(F)F)C(F)(F)F)cc1 ?
(A) 6.70

(Q) Record lookup: for Oxysterols receptor LXR-alpha (Homo sapiens, UniProt Q13133), what pEC50 belongs to CCN(c1ccc(C(O)(C(F)(F)F)C(F)(F)F)cc1Cl)C(CC)(C(=O)OC)c1ccccc1 (racemic) ?
(A) 6.30

(Q) Record lookup: for Oxysterols receptor LXR-alpha (Homo sapiens, UniProt Q13133), what pEC50 belongs to COC(=O)C1(c2ccccc2)CCCCN1c1ccc(C(O)(C(F)(F)F)C(F)(F)F)cc1 (racemic) ?
(A) 7.05

(Q) Record lookup: for Oxysterols receptor LXR-alpha (Homo sapiens, UniProt Q13133), what pEC50 belongs to CCN(c1ccc(C(O)(C(F)(F)F)C(F)(F)F)cc1)C(C(=O)N1CCOCC1)c1ccccc1 (racemic) ?
(A) 5.07

(Q) Record lookup: for Oxysterols receptor LXR-alpha (Homo sapiens, UniProt Q13133), what pEC50 belongs to CCN(c1ccc(C(O)(C(F)(F)F)C(F)(F)F)cc1)C(C(=O)N(C)C)c1ccccc1 (racemic) ?
(A) 5.03

(Q) Record lookup: for Oxysterols receptor LXR-alpha (Homo sapiens, UniProt Q13133), what pEC50 belongs to CCN(c1ccc(C(O)(C(F)(F)F)C(F)(F)F)cc1)C(COC)c1ccccc1 (racemic) ?
(A) 6.05

(Q) Record lookup: for Oxysterols receptor LXR-alpha (Homo sapiens, UniProt Q13133), what pEC50 belongs to CCN(c1ccc(C(O)(C(F)(F)F)C(F)(F)F)cc1)C(COCc1ccccc1)c1ccccc1 (racemic) ?
(A) 5.72

(Q) Record lookup: for Oxysterols receptor LXR-alpha (Homo sapiens, UniProt Q13133), what pEC50 belongs to CCN(Cc1ccccc1)c1ccc(C(O)(C(F)(F)F)C(F)(F)F)cc1 ?
(A) 5.96

(Q) Record lookup: for Oxysterols receptor LXR-alpha (Homo sapiens, UniProt Q13133), what pEC50 belongs to CCN(Cc1nc(-c2cccc(C(F)(F)F)c2)oc1C)c1ccc(C(O)(C(F)(F)F)C(F)(F)F)cc1Cl ?
(A) 7.00

(Q) Record lookup: for Oxysterols receptor LXR-alpha (Homo sapiens, UniProt Q13133), what pEC50 belongs to CCN(Cc1cccnc1)c1ccc(C(O)(C(F)(F)F)C(F)(F)F)cc1 ?
(A) 5.37

(Q) Record lookup: for Oxysterols receptor LXR-alpha (Homo sapiens, UniProt Q13133), what pEC50 belongs to CCN(c1ccc(C(O)(C(F)(F)F)C(F)(F)F)cc1)C(C(=O)NC)c1ccccc1 (racemic) ?
(A) 4.96

(Q) Record lookup: for Oxysterols receptor LXR-alpha (Homo sapiens, UniProt Q13133), what pEC50 belongs to CCN(Cc1nc(-c2cccc(Cl)c2)oc1C)c1ccc(C(O)(C(F)(F)F)C(F)(F)F)cc1Cl ?
(A) 6.52

(Q) Record lookup: for Oxysterols receptor LXR-alpha (Homo sapiens, UniProt Q13133), what pEC50 belongs to CCN(c1ccc(C(O)(C(F)(F)F)C(F)(F)F)cc1)C(COCC(=O)OC)c1ccccc1 (racemic) ?
(A) 5.66

(Q) Record lookup: for Oxysterols receptor LXR-alpha (Homo sapiens, UniProt Q13133), what pEC50 belongs to CCN(c1ccc(C(O)(C(F)(F)F)C(F)(F)F)cc1)C(C(=O)OC)c1ccccc1 (racemic) ?
(A) 5.64

(Q) Record lookup: for Oxysterols receptor LXR-alpha (Homo sapiens, UniProt Q13133), what pEC50 belongs to CCN(CCc1ccccc1)c1ccc(C(O)(C(F)(F)F)C(F)(F)F)cc1 ?
(A) 6.00

(Q) Record lookup: for Oxysterols receptor LXR-alpha (Homo sapiens, UniProt Q13133), what pEC50 belongs to CCN(c1ccc(C(O)(C(F)(F)F)C(F)(F)F)cc1)C(CC)(C(=O)OC)c1ccccc1 (racemic) ?
(A) 6.52

(Q) Record lookup: for Oxysterols receptor LXR-alpha (Homo sapiens, UniProt Q13133), what pEC50 belongs to CCN(c1ccc(C(O)(C(F)(F)F)C(F)(F)F)cc1)C(C(=O)O)c1ccccc1 (racemic) ?
(A) 5.03

(Q) Record lookup: for Oxysterols receptor LXR-alpha (Homo sapiens, UniProt Q13133), what pEC50 belongs to CCN(c1ccc(C(O)(C(F)(F)F)C(F)(F)F)cc1Cl)C(COc1ccc(CCC(=O)OC)cc1)c1ccccc1 (racemic) ?
(A) 5.85

(Q) Record lookup: for Oxysterols receptor LXR-alpha (Homo sapiens, UniProt Q13133), what pEC50 belongs to Cc1oc(-c2cccc(Cl)c2)nc1CN(CC(F)(F)F)c1ccc(C(O)(C(F)(F)F)C(F)(F)F)cc1 ?
(A) 6.00

(Q) Record lookup: for Oxysterols receptor LXR-alpha (Homo sapiens, UniProt Q13133), what pEC50 belongs to CCN(c1ccc(C(O)(C(F)(F)F)C(F)(F)F)cc1Cl)C(COc1ccc(CC(=O)O)cc1)c1ccccc1 (racemic) ?
(A) 5.26

(Q) Record lookup: for Oxysterols receptor LXR-alpha (Homo sapiens, UniProt Q13133), what pEC50 belongs to CCN(c1ccc(C(O)(C(F)(F)F)C(F)(F)F)cc1)C(COCC(=O)N(C)C)c1ccccc1 (racemic) ?
(A) 6.10

(Q) Record lookup: for Oxysterols receptor LXR-alpha (Homo sapiens, UniProt Q13133), what pEC50 belongs to Cc1oc(-c2cccc(C(F)(F)F)c2)nc1CN(CC(F)(F)F)c1ccc(C(O)(C(F)(F)F)C(F)(F)F)cc1 ?
(A) 6.15

(Q) Record lookup: for Oxysterols receptor LXR-alpha (Homo sapiens, UniProt Q13133), what pEC50 belongs to CCN(c1ccc(C(O)(C(F)(F)F)C(F)(F)F)cc1)C(C)(C(=O)OC)c1ccccc1 (racemic) ?
(A) 7.00

(Q) Record lookup: for Oxysterols receptor LXR-alpha (Homo sapiens, UniProt Q13133), what pEC50 belongs to CCN(Cc1ccncc1)c1ccc(C(O)(C(F)(F)F)C(F)(F)F)cc1 ?
(A) 5.68

(Q) Record lookup: for Oxysterols receptor LXR-alpha (Homo sapiens, UniProt Q13133), what pEC50 belongs to OC(c1ccc(N(Cc2ccccc2)CC(F)(F)F)cc1)(C(F)(F)F)C(F)(F)F ?
(A) 6.05

(Q) Record lookup: for Oxysterols receptor LXR-alpha (Homo sapiens, UniProt Q13133), what pEC50 belongs to CCN(c1ccc(C(O)(C(F)(F)F)C(F)(F)F)cc1Cl)C(COc1ccc(C(=O)OC)cc1)c1ccccc1 (racemic) ?
(A) 6.15

(Q) Record lookup: for Oxysterols receptor LXR-alpha (Homo sapiens, UniProt Q13133), what pEC50 belongs to CCN(Cc1cscn1)c1ccc(C(O)(C(F)(F)F)C(F)(F)F)cc1Cl ?
(A) 6.30

(Q) Record lookup: for Oxysterols receptor LXR-alpha (Homo sapiens, UniProt Q13133), what pEC50 belongs to CCN(c1ccc(C(O)(C(F)(F)F)C(F)(F)F)cc1Cl)C(COc1ccc(C(=O)O)cc1)c1ccccc1 (racemic) ?
(A) 5.43

(Q) Record lookup: for Oxysterols receptor LXR-alpha (Homo sapiens, UniProt Q13133), what pEC50 belongs to CCN(c1ccc(C(O)(C(F)(F)F)C(F)(F)F)cc1)C(COCC(=O)O)c1ccccc1 (racemic) ?
(A) 5.00

(Q) Record lookup: for Oxysterols receptor LXR-alpha (Homo sapiens, UniProt Q13133), what pEC50 belongs to CCN(CCc1ccccc1)c1ccc(C(O)(C(F)(F)F)C(F)(F)F)cc1Cl ?
(A) 6.10
